biological target: LTRPC2 (Homo sapiens, UniProt O94759); construct: beginning at amino acid 3 and extending to amino acid 1503; FLAG tag within the printed N-terminal leader […]; assay: ADPR-dependent gating of LTRPC2, whole-cell patch-clamp in tetracycline-induced HEK-293 cells expressing FLAG-LTRPC2; conditions: HEK-293 cells expressing FLAG-LTRPC2, intracellular perfusion, peak currents at −80 mV; read-out: apparent EC50 of ADPR-dependent gating of LTRPC2
Sequence (O94759 3-1503): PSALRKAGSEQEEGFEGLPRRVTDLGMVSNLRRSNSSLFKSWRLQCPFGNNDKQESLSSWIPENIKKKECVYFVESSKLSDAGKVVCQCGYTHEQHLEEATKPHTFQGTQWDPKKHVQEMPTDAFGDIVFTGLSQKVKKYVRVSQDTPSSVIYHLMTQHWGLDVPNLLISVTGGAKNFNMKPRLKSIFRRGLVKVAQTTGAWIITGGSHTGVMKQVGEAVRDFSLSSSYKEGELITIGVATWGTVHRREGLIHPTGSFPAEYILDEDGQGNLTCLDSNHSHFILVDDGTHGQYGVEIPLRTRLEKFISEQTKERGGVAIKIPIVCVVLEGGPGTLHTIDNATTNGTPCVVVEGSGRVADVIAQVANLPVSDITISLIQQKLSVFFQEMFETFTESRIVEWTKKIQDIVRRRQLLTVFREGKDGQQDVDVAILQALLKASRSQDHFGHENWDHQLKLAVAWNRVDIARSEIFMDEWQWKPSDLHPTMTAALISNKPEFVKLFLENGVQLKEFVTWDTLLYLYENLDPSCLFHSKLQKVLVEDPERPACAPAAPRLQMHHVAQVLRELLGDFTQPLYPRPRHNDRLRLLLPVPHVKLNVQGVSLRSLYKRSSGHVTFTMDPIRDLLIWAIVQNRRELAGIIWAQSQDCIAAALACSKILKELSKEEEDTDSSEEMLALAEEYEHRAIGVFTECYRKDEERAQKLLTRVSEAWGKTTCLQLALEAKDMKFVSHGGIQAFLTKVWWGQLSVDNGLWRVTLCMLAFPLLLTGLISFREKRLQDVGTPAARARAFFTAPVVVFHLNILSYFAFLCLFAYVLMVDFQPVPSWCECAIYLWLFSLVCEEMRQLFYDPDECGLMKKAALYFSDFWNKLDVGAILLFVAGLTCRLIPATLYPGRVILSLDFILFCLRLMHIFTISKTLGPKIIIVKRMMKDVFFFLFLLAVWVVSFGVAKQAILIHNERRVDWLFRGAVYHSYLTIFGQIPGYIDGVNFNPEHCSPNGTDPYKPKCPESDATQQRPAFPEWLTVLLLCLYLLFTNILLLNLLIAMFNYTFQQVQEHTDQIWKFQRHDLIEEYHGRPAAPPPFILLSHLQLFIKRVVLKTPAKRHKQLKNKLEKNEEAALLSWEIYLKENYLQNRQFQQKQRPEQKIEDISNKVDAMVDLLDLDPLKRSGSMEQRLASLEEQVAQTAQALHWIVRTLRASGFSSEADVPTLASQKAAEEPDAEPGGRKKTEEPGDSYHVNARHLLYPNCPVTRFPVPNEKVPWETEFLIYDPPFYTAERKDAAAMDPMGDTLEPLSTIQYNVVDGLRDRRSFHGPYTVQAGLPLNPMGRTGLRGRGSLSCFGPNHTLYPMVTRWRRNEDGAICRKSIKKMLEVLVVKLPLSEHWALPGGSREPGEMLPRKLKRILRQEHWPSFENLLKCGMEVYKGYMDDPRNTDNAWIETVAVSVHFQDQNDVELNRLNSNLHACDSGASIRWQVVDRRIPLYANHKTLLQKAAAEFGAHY
pEC50: −log10 of the molar value.
Reported metric: pEC50

compound="Nc1ncnc2c1ncn2[C@@H]1O[C@H](COP(=O)(O)OP(=O)(O)OC[C@H]2OC(O)[C@H](O)[C@@H]2O)[C@@H](O)[C@H]1O (stereo partly shown)" reported_metric=pEC50 observed_value=4.05

----------
biological target: NUDT9 (Homo sapiens, UniProt Q9BW91); construct: made in house; host or cells: E. coli BL21 (DE3), pET-24d; assay: Nudix-type hydrolase activity towards a panel of substrates, NUDT9; type: biochemical; conditions: purified bacterially expressed NUDT9
Sequence (Q9BW91 47-350): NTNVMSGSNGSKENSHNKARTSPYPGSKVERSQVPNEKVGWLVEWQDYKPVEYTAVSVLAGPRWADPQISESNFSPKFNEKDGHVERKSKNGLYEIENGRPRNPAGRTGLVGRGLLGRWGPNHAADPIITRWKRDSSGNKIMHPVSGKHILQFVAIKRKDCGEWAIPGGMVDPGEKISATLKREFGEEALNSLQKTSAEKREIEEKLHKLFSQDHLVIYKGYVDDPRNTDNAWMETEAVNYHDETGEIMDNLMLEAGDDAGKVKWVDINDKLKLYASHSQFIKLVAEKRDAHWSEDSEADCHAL
Reported metric: hydrolysis as substrate by NUDT9

compound="Nc1nc2c(ncn2[C@@H]2O[C@H](COP(=O)(O)OP(=O)(O)O[C@H]3O[C@H](CO)[C@@H](O)[C@H](O)[C@@H]3O)[C@@H](O)[C@H]2O)c(=O)[nH]1 [GDP-mannose]" observed_value="not hydrolyzed"
compound="Nc1nc2c(ncn2[C@H]2C[C@H](O)[C@@H](COP(=O)(O)OP(=O)(O)OP(=O)(O)O)O2)c(=O)[nH]1 [deoxy-GTP]" observed_value="not hydrolyzed"
compound="NC(=O)C1=CN([C@@H]2O[C@H](COP(=O)(O)OP(=O)(O)OC[C@H]3O[C@@H](n4cnc5c(N)ncnc54)[C@H](O)[C@@H]3O)[C@@H](O)[C@H]2O)C=CC1 [NADH]" observed_value="not hydrolyzed"
